All figures here come from ChEMBL document CHEMBL1961873.

System: Leucine-rich repeat serine/threonine-protein kinase 2 (Homo sapiens), Q5S007 [G2019S]
Sequence (Q5S007 whole entry G2019S): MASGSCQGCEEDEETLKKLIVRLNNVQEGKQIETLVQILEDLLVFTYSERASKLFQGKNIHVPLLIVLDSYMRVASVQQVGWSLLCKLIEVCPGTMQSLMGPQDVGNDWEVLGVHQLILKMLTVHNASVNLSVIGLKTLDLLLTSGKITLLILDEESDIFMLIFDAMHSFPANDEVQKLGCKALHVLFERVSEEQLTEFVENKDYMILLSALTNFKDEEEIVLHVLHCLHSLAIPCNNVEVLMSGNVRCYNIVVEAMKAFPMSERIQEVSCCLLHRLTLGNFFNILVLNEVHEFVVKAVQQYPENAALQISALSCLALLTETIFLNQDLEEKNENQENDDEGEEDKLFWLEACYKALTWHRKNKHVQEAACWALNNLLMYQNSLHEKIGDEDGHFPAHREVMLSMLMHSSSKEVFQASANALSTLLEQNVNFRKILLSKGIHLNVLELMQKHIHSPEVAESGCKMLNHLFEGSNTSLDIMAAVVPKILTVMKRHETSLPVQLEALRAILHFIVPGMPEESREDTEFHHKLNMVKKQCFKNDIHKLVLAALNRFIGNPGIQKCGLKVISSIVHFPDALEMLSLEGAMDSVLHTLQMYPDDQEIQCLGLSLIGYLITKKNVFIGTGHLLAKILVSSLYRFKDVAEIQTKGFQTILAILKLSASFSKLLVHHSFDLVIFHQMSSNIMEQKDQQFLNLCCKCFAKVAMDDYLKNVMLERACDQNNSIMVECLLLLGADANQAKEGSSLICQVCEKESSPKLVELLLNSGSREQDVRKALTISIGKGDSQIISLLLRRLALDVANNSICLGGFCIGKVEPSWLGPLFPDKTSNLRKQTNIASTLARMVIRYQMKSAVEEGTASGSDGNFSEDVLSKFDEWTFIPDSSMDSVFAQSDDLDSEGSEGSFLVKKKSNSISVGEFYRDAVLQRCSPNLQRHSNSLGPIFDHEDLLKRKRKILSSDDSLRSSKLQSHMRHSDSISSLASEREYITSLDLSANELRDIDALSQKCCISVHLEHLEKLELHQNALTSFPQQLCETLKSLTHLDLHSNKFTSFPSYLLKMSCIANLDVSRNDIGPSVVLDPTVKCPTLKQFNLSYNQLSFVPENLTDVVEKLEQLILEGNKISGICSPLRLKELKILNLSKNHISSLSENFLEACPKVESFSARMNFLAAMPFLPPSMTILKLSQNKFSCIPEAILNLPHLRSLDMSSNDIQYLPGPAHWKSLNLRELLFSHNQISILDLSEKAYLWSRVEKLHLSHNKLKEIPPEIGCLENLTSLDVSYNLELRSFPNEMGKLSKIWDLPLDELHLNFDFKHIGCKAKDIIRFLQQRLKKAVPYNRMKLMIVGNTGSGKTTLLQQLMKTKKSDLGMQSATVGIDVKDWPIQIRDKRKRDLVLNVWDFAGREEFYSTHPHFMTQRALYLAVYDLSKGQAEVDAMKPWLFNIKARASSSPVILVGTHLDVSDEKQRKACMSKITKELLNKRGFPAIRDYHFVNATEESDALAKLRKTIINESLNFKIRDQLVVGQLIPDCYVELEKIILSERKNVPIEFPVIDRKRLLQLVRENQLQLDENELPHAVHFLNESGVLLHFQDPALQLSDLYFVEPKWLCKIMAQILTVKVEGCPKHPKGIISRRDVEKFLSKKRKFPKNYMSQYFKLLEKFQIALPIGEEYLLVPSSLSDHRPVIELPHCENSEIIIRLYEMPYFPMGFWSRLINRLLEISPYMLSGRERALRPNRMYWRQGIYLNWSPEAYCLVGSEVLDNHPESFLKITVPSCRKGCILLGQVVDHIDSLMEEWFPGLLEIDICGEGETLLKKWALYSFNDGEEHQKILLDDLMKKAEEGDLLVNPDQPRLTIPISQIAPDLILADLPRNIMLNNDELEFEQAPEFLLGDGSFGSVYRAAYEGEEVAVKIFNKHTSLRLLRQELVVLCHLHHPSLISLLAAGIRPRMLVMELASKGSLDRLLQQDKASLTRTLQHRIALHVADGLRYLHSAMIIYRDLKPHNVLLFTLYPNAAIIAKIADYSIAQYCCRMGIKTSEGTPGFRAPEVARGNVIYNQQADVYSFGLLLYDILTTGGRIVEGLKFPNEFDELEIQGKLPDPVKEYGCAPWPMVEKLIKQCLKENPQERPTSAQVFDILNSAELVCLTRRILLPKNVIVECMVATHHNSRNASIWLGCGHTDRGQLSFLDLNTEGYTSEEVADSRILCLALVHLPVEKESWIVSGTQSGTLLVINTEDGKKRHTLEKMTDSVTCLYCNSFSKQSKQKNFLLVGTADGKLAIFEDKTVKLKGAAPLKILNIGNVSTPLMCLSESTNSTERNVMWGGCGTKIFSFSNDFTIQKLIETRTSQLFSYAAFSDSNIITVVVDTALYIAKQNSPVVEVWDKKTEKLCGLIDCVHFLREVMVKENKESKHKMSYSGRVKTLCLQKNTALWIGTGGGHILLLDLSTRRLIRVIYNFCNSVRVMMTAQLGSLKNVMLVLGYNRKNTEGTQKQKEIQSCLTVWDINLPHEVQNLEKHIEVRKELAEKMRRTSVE
Conditions: at 0.1 µM
So basically: inhibition at 6% or higher? That is true (1). Lower than 6%? That is false (0).

Given `CS(=O)(=O)CCNCc1ccc(-c2ccc3ncnc(Nc4ccc(OCc5ccccc5)c(C(F)(F)F)c4)c3c2)o1` , state whether its inhibition is at least 6%.
false (0)

Given `Fc1ccc(-c2cc(-c3c[nH]nc3-c3ccccn3)ccn2)cc1` , state whether its inhibition is at least 6%.
false (0)

Given `CCn1cc(-c2ccnc3[nH]ccc23)c(-c2cccc(NC(=O)Nc3ccc(OCc4ccccc4)cc3)c2)n1` , state whether its inhibition is at least 6%.
false (0)

Given `CCc1nn2ncccc2c1-c1ccnc(NC2CC2)n1` , state whether its inhibition is at least 6%.
false (0)

Given `FC(F)(F)c1cccc(-c2nn3ncccc3c2-c2ccnc(Nc3ccc4c(c3)OCCO4)n2)c1` , state whether its inhibition is at least 6%.
false (0)

Given `COc1cc2c(cc1Nc1nc(Nc3ccsc3C(N)=O)c3cc[nH]c3n1)N(C(=O)CN(C)C)CCC2(C)C` , state whether its inhibition is at least 6%.
true (1)

Given `O=C(Nc1n[nH]c2cc(-c3ccc(F)cc3)ccc12)C1CC1` , state whether its inhibition is at least 6%.
false (0)

Given `Nc1ncc(-c2cccc(S(N)(=O)=O)c2)c2scc(-c3ccc(F)c(Cl)c3)c12` , state whether its inhibition is at least 6%.
true (1)

Given `CCCN(CCS(C)(=O)=O)Cc1ccc(-c2ccc3ncnc(Nc4ccc(OCc5cccc(F)c5)c(Cl)c4)c3c2)o1` , state whether its inhibition is at least 6%.
false (0)

Given `Cc1cccc2c1NC(=O)/C2=N\Nc1ccc(S(N)(=O)=O)cc1` , state whether its inhibition is at least 6%.
false (0)

Given `COc1ccc2[nH]c3c4[nH]c5ccc(OC)cc5c4c4c(c3c2c1)C(=O)NC4=O` , state whether its inhibition is at least 6%.
true (1)

Given `O=S(=O)(CCNCc1ccc(-c2ccc3ncnc(Nc4ccc(OCc5cccc(F)c5)c(Cl)c4)c3c2)o1)c1ccccc1` , state whether its inhibition is at least 6%.
true (1)

Given `Nc1nc(-c2ccc(F)cc2)c(-c2ccc3ncccc3n2)s1` , state whether its inhibition is at least 6%.
false (0)

Given `COc1ccc(CNC(=O)c2ccc(-c3cc(-c4nnc(C)o4)ccc3C)cc2)cc1` , state whether its inhibition is at least 6%.
false (0)

Given `CNC(=O)c1cncc(/C=C/c2ccccc2Cl)c1` , state whether its inhibition is at least 6%.
false (0)

Given `COc1ccc2c(-c3ccnc(Nc4cccc(OC(F)(F)F)c4)n3)cnn2n1` , state whether its inhibition is at least 6%.
true (1)

Given `[O-][S+]1CCN(Cc2ccc(-c3ccc4ncnc(Nc5ccc(OCc6cccc(F)c6)c(Cl)c5)c4c3)o2)CC1` , state whether its inhibition is at least 6%.
true (1)

Given `Fc1ccc(-c2nn3ncccc3c2-c2ccnc(Nc3ccc4c(c3)OCCO4)n2)cc1` , state whether its inhibition is at least 6%.
false (0)

Given `COc1ccc(-c2oc3ncnc(N)c3c2-c2ccc(NC(=O)Nc3cc(C(F)(F)F)ccc3F)cc2)cc1` , state whether its inhibition is at least 6%.
false (0)
